# Assay System: Solute carrier family 15 member 1 (Rattus norvegicus, UniProt P51574)
# Sequence (P51574 whole entry): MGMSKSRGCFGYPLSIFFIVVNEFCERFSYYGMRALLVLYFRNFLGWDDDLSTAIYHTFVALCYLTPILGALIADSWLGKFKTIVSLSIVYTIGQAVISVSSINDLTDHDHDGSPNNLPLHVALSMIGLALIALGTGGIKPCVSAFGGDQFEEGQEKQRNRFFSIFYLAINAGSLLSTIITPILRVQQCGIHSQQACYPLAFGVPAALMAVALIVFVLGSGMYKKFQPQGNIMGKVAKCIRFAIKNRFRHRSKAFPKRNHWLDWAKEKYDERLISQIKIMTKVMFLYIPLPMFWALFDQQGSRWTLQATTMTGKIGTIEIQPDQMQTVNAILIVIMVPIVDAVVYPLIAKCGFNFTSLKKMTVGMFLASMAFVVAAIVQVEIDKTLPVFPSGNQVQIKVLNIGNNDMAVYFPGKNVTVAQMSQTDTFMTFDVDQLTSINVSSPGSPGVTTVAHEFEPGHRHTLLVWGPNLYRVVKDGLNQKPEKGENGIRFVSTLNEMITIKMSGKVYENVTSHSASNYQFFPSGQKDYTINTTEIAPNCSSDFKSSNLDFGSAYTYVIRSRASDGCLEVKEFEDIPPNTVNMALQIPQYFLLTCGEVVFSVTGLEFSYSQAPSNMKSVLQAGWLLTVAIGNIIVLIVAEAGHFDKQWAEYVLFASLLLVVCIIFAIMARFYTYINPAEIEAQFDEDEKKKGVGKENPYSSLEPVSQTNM
# Assay Summary: TP_TRANSPORTER: inhibition of Gly-Sar uptake in PEPT1-expressing LLC-PK1 cells
Peptide text beside a SMILES is read from it.
Provide the reported log10(Ki) of each item.
Could you please treat all values as log10 of Ki in µM?

Illustrative cases are given below, each with its answer.
CNCC(=O)NCC(=O)O; 4.11
N[C@@H](CC(=O)O)C(=O)NCC(=O)O (H-Asp-Gly-OH); 2.92

Give measured log10(Ki) for every item shown.
1. CC(C)C[C@H](NC(=O)CN)C(=O)O
2. CC(C)C[C@H](NC(=O)CN)C(=O)N[C@@H](Cc1ccc(O)cc1)C(=O)O (H-Gly-Leu-Tyr-OH)
3. C[C@H](N)C(=O)Nc1ccc([N+](=O)[O-])cc1
4. NCCCC[C@H](NC(=O)[C@@H](N)CCCCN)C(=O)O

Solution:
2.04
2.28
1.79
3.90

Exercise: Data request, read-out log10(Ki), for NCCCC[C@H](NC(=O)CN)C(=O)O (H-Gly-Lys-OH)
Solution: 3.34

Where do the numbers come from? From ChEMBL document CHEMBL2074359.
